The measurements presented in this section are drawn from ChEMBL document CHEMBL1128061.

# targetUnderTest: Thrombin & trypsin (Homo sapiens) (UniProt P00734+P07477+P07478+P35030)
# protocol: Ratio of association constant of thrombin and trypsin
# Format: protein assay
Where a SMILES comes first, the peptide text is derived from it. [ ]: non-standard residue; d: D form. dPip = O=C(O)[C@H]1CCCCN1
Under this convention, true (1) denotes Ratio strictly below 3 and false (0) denotes Ratio at or above 3.

Consider the molecule N=C(N)NCCC[C@@H](C=O)NC(=O)[C@@H]1CCCN1C(=O)[C@H]1CCCCN1 (H-[dPip]-Pro-Arg-aldehyde) . Is its Ratio strictly less than 3?
false (0)

Consider the molecule CCN(CC(=O)N[C@H](C=O)CCCN=C(N)N)C(=O)[C@H]1CCCCN1 . Is its Ratio strictly less than 3?
false (0)

Consider the molecule N=C(N)NCCC[C@@H](C=O)NC(=O)CN(CCC1CCCCC1)C(=O)[C@H]1CCCCN1 . Is its Ratio strictly less than 3?
true (1)

Consider the molecule N=C(N)NCCC[C@@H](C=O)NC(=O)CN(C(=O)[C@H]1CCCCN1)c1ccccc1 . Is its Ratio strictly less than 3?
false (0)

Consider the molecule N=C(N)NCCC[C@@H](C=O)NC(=O)CN(Cc1ccccc1)C(=O)[C@H]1CCCCN1 . Is its Ratio strictly less than 3?
true (1)

Consider the molecule CC(C)CN(CC(=O)N[C@H](C=O)CCCN=C(N)N)C(=O)[C@H]1CCCCN1 . Is its Ratio strictly less than 3?
false (0)

Consider the molecule CN(CC(=O)N[C@H](C=O)CCCN=C(N)N)C(=O)[C@H]1CCCCN1 . Is its Ratio strictly less than 3?
false (0)

Consider the molecule N=C(N)NCCC[C@@H](C=O)NC(=O)CN(CCc1ccccc1)C(=O)[C@H]1CCCCN1 . Is its Ratio strictly less than 3?
false (0)

Consider the molecule N=C(N)NCCC[C@@H](C=O)NC(=O)CN(CCCc1ccccc1)C(=O)[C@H]1CCCCN1 . Is its Ratio strictly less than 3?
false (0)
